- Study System: FGFR1 (Homo sapiens (Human), UniProt P11362)
- Sequence (P11362 22-822): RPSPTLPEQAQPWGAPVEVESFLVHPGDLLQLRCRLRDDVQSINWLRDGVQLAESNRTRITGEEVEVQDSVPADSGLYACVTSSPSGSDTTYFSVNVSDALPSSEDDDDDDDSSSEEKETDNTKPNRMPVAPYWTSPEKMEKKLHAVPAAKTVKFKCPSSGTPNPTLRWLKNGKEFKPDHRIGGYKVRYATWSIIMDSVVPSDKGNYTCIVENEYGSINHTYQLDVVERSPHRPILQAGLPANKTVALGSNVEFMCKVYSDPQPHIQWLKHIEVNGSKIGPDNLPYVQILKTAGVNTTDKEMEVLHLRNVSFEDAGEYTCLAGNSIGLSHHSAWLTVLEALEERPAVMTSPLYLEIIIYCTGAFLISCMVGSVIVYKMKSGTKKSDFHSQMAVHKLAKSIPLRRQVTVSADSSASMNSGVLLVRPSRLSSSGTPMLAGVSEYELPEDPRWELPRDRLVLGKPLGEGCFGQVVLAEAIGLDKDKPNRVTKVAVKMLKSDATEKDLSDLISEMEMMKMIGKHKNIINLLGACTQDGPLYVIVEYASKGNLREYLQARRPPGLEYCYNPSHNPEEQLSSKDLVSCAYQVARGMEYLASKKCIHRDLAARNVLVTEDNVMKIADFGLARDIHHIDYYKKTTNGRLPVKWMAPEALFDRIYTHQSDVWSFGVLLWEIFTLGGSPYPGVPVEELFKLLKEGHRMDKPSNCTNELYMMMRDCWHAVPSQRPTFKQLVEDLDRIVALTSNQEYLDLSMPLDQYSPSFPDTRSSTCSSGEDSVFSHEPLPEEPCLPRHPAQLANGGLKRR
- Protocol Text: Kinase assay, binding constants (Kd), kinase-tagged T7 phage, qPCR
Listed molecules paired with reported Kd

Please review the entries below; each comes with its answer.
Data point: "C[C@@H](Oc1ccc2[nH]nc(-c3ccc(N4CCN(C)CC4=O)nc3)c2c1)c1c(Cl)cncc1Cl" ; Kd = 20 to 100 nM

Data point: "Cc1cc2[nH]nc(-c3ccc(N4CC5(C4)CN(S(C)(=O)=O)C5)nc3)c2cc1O[C@H](C)c1c(Cl)cncc1Cl" ; Kd = 1 to 20 nM

Data point: "C[C@@H](Oc1ccc2[nH]nc(-c3ccc(N4CC5(CCOC5)C4)nc3)c2c1)c1c(Cl)cnc(F)c1Cl" ; Kd = 20 to 100 nM

Data point: "C[C@@H](Oc1ccc2[nH]nc(-c3ccc(N4CCC5(CCC(=O)N5)CC4)nc3)c2c1)c1c(Cl)cncc1Cl" ; Kd = 1 to 20 nM

Data point: "C[C@@H](Oc1ccc2[nH]nc(-c3ccc(N4CC5(CNC5)OC4=O)nc3)c2c1)c1c(Cl)cncc1Cl" ; Kd = 1 to 20 nM

Data point: "Cc1ncc(Cl)c([C@@H](C)Oc2ccc3[nH]nc(-c4ccc(N5CC6(CCCO6)C5)nc4)c3c2)c1Cl" ; Kd = 20 to 100 nM

Further cases:
Data point: "C[C@@H](Oc1ccc2[nH]nc(-c3cnc(N4CC(O)C4)c(C#N)c3)c2c1)c1c(Cl)cncc1Cl" ; Kd = 100 to 300 nM

The measurements presented in this section are drawn from patent US20240109865A1.
